System: Escherichia coli (ECO) isolates
EXPERIMENT: MIC of compounds alone and combined with antibacterials, broth microdilution (CLSI)
Format: cell-based
CONDITIONS USED: ECO UFR187; AF1 @ 4 μg/mL
MEASURED METRIC: MIC ATB in combination

molecule="CC1(C)S[C@@H]2[C@H](NC(=O)[C@H](N)c3ccc(O)cc3)C(=O)N2[C@H]1C(=O)O [AMX, Amoxicillin]" measured_metric="MIC ATB in combination" experimental_value="16 µg/mL"
molecule="COCC1=C(C(=O)O)N2C(=O)[C@@H](NC(=O)/C(=N\\OC)c3csc(N)n3)[C@H]2SC1 [POD, Cefpodoxime]" measured_metric="MIC ATB in combination" experimental_value="0.5 µg/mL"
molecule="CC(C)(O/N=C(\\C(=O)N[C@@H]1C(=O)N2C(C(=O)[O-])=C(C[n+]3ccccc3)CS[C@H]12)c1csc(N)n1)C(=O)O [CAZ, Ceftazidime]" measured_metric="MIC ATB in combination" experimental_value="1 µg/mL"
molecule="CO/N=C(\\C(=O)N[C@@H]1C(=O)N2C(C(=O)O)=C(COC(N)=O)CS[C@H]12)c1ccco1 [FUR, Cefuroxime]" measured_metric="MIC ATB in combination" experimental_value="8 µg/mL"
molecule="C=CC1=C(C(=O)O)N2C(=O)[C@@H](NC(=O)/C(=N\\O)c3csc(N)n3)[C@H]2SC1 [CDR, Cefdinir]" measured_metric="MIC ATB in combination" experimental_value="0.5 µg/mL"

Values from patent US20200017496A1
